System: SF-268 CNS
Experiment: NCI-60 one-dose screen, 48 h
Conditions: 10 µM unless noted
The panel holds about 83,000 compounds, 20% with a hit somewhere; the sample as a whole holds those more often. Calls of active or inactive are those of the source. How the source made its calls: active means growth percent below 10; inactive means the rest.
Possible outcomes: t = active, f = inactive

{"columns": ["smiles_data", "label_value"],
 "data": [
  ["N#C[S-].[Au+].c1ccc(CN2[CH-]N(Cc3ccccc3)C(c3ccccc3)=C2c2ccccc2)cc1", "f"],
  ["COc1cc(/C=C/[N+](=O)[O-])cc(OC)c1", "f"],
  ["C=CC[PH+](c1ccccc1)c1ccccc1.C=CC[PH+](c1ccccc1)c1ccccc1.[Cl][Pt][Cl]", "f"],
  ["CC1=C([Te]c2ccc(O)cc2)C(=O)c2ccccc2C1=O", "f"],
  ["CC(=O)[O][Hg][c]1c(N)c(C)cc(C)c1F", "t"],
  ["CC[C@H](C)[C@H](NC(=O)NC(C)(C)C)C(=O)N(C)[C@H](C[C@@H](OC(C)=O)c1nc(C(=O)N[C@@H](Cc2ccccc2)C[C@H](C)C(=O)OC)cs1)C(C)C", "f"],
  ["CCCCCCCC[N+](C)(CCCCCCCC)CCCCCCCC", "t"],
  ["[Cl][Hg][c]1cc[c]([Hg][Cl])o1", "f"],
  ["C=CCn1cc(C=C2C(=O)N(C)C(=O)N(C)C2=O)c2ccccc21", "f"],
  ["Cc1ccc(S(=O)(=O)C(Cl)(Cl)Cl)cc1", "f"]
]}
